# Tested on: Peroxisome proliferator-activated receptor alpha (Homo sapiens), Q07869 [T279A]
# Sequence (Q07869 whole entry T279A): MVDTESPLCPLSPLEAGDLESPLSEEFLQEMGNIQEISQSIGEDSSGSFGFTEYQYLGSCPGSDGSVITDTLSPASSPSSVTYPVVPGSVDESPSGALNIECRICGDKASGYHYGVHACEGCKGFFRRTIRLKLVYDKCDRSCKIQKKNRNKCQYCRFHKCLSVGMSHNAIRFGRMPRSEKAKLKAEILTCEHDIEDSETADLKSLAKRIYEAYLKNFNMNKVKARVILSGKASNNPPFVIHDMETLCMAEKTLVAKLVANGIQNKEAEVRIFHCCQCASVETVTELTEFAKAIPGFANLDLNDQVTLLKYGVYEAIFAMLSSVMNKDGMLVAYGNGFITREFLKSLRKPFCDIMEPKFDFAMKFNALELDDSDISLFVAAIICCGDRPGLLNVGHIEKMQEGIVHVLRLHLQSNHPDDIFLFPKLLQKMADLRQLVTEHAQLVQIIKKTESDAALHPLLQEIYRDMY
# assay-procedure: Agonist activity at wild-type human PPARalpha Thr279Ala mutant expressed in COS7 cells after 12 hrs by Dual-Glo luciferase assay relative to control
# Format: cell-based
# conditions-used: COS-7
Assign %max to each entry below.
One number for each entry, in %.

# annotated cases, reported %max shown
CCCCCCC(Sc1nc(Cl)cc(Nc2ccc(Nc3ccccc3)cc2)n1)C(=O)O (centres undefined)
115
CCCCCCC(Sc1nc(Cl)cc(Nc2ccc(C(=O)c3ccccc3)cc2)n1)C(=O)O (centres undefined)
105
CCCCCCC(Sc1nc(Cl)cc(Nc2ccc(Oc3ccccc3)cc2)n1)C(=O)O (centres undefined)
87

--- query ---
Query string: Which %max is listed for CCCCCCC(Sc1nc(Cl)cc(Nc2ccc(Cc3ccccc3)cc2)n1)C(=O)O (centres undefined) ?
Result string: 83

---

Assign EC50 to each entry below.
# measured-on: Peroxisome proliferator-activated receptor alpha (Homo sapiens, UniProt Q07869, T279A)
# assay-procedure: Agonist activity at wild-type human PPARalpha Thr279Ala mutant expressed in COS7 cells after 12 hrs by Dual-Glo luciferase assay
Answers are plain numbers, in nM.

# annotated cases, reported EC50 shown
CCCCCCC(Sc1nc(Cl)cc(Nc2ccc(Cc3ccccc3)cc2)n1)C(=O)O (centres undefined)
240
CCCCCCC(Sc1nc(Cl)cc(Nc2ccc(Nc3ccccc3)cc2)n1)C(=O)O (centres undefined)
100
CCCCCCC(Sc1nc(Cl)cc(Nc2ccc(C(=O)c3ccccc3)cc2)n1)C(=O)O (centres undefined)
70

Query string: Record lookup: for Peroxisome proliferator-activated receptor alpha (Homo sapiens, UniProt Q07869, T279A), what EC50 belongs to CCCCCCC(Sc1nc(Cl)cc(Nc2ccc(Oc3ccccc3)cc2)n1)C(=O)O (centres undefined) ?
Result string: 150

---

# measured-on: Peroxisome proliferator-activated receptor alpha (Homo sapiens) (UniProt Q07869)
# Sequence (Q07869 whole entry, the tested form may be a part): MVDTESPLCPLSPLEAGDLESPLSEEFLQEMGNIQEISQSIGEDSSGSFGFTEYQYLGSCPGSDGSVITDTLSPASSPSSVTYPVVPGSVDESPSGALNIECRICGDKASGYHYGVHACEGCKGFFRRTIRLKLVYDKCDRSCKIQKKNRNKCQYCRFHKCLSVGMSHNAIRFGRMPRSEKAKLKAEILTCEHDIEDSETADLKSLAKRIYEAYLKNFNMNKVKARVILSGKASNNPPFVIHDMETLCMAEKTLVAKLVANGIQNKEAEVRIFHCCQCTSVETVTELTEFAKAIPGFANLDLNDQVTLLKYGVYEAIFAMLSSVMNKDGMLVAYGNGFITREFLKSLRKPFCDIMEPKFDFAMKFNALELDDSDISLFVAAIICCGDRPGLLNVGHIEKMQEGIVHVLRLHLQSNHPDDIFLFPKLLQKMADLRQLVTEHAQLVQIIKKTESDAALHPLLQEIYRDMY
# assay-procedure: Agonist activity at wild-type human PPARalpha LBD expressed in COS7 cells after 12 hrs by Dual-Glo luciferase assay relative to control
# Assay type: cell-based
# conditions-used: COS-7
attribute-measured: %max (%)
One number for each entry, in %.

CCCCCCC(Sc1nc(Cl)cc(Nc2ccc(C(=O)c3ccccc3)cc2)n1)C(=O)O (stereo unspecified)
134

Record %max for all entries; do not skip any.
1. CCCCCCC(Sc1nc(Cl)cc(Nc2ccc(Oc3ccccc3)cc2)n1)C(=O)O (stereo unspecified)
2. CCCCCCC(Sc1nc(Cl)cc(Nc2ccc(Cc3ccccc3)cc2)n1)C(=O)O (stereo unspecified)

Result string:
1: 155; 2: 127

Record %max for all entries; do not skip any.
1. CCCCC(Sc1nc(Cl)cc(Nc2ccc(Nc3ccccc3)cc2)n1)C(=O)O (stereo unspecified)
2. CCCCCCC(Sc1nc(Cl)cc(Nc2ccc(Nc3ccccc3)cc2)n1)C(=O)O (stereo unspecified)
3. O=C(O)CSc1nc(Cl)cc(Nc2ccc(Nc3ccccc3)cc2)n1

Result string:
137
95
133
